- measurement notes: qHTS Assay for inhibitors of the human cytomegalovirus (HCMV)
- experimental parameters: HFF cells, HCMV-luciferase reporter, 72 h; at 57.5 µM
Among all 410,000 compounds or so, about 18,000 (4.4%) were called active. Inconclusive results (about 7%) are left out. Cut-off read from the data, not from the text of the source: active = activity change below about -60%; inconclusive = no clear call, values can overlap the other calls; inactive = above about -39%. The full list was thinned out, with actives kept by preference.
Your answer must be one of the following: Y (active), N (inactive)

As a guide, the following entries are already answered.
INSERT INTO results (chemical_structure, category_label) VALUES
  ('Cc1ccc(CNC(=O)CCC(=O)N2Cc3ccccc3Oc3ncccc32)cc1', 'N'),
  ('CC(=O)c1ccccc1OCc1ccc(C(=O)c2ccccc2)cc1', 'N'),
  ('COc1cccc(NC(=O)CN2C(=O)c3ccccc3Sc3ncccc32)c1', 'N'),
  ('COc1ccc(C)cc1NC(=O)COCc1cc(-c2cccs2)on1', 'N'),
  ('Cc1nc2ccccc2cc1OCc1ccc(F)cc1', 'Y');

Consider the additional compound presented here.
Exercise: Any idea what this test logged for O=C(NNC(=O)c1cccc(S(=O)(=O)Nc2ccc(Cl)cc2)c1)c1ccc(=O)[nH]c1 ?
Key: N
